Test: self-splicing fitness, log relative to wild type (ln ratio); higher = more splicing; Tetrahymena group I intron in knt gene, E. coli kanamycin selection, DiMSum; sequences stand for … in CUCUCU…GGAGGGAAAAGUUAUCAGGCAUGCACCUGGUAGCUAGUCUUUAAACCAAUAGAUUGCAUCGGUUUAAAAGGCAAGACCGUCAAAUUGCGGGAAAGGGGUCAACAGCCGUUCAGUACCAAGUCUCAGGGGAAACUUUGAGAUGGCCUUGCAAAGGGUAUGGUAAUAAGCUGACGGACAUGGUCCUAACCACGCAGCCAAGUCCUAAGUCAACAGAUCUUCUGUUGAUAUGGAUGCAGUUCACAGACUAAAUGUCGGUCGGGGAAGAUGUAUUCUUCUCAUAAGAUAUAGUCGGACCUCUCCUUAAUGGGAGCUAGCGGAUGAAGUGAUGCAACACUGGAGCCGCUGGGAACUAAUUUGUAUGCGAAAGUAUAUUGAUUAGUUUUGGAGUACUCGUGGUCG;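 note: selection with 25 µg/mL kanamycin versus none on LB agar overnight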
Settings: 30 °C
// thresholds for self-splicing fitness (ln) classes: lower: < -3; middle: ≥ -3 and < -2; upper: ≥ -2

Examples from the recorded data:
1. AUUAAGCAAUAUUACGGAGA middle
2. CGCCAGCAAUAUUACGGCAU upper
3. AUGAAGCAAUAUUACGAAAA middle

Form field 'band' for GAGUAGCAAUAUUACGUGAC
upper

Form field 'band' for CCUUAGCAAUAUUACGCUAC
middle

Form field 'band' for CCAUAGCAAUAUUACGGAGG
lower

Form field 'band' for UCGUAGCAAUAUUACGGGUU
lower

Form field 'band' for AUAAAGCAAUAUUACGGACA
upper

---

Test: self-splicing fitness, log relative to wild type (ln ratio); higher = more splicing; Tetrahymena group I intron in knt gene, E. coli kanamycin selection, DiMSum; sequences stand for … in CUCUCU…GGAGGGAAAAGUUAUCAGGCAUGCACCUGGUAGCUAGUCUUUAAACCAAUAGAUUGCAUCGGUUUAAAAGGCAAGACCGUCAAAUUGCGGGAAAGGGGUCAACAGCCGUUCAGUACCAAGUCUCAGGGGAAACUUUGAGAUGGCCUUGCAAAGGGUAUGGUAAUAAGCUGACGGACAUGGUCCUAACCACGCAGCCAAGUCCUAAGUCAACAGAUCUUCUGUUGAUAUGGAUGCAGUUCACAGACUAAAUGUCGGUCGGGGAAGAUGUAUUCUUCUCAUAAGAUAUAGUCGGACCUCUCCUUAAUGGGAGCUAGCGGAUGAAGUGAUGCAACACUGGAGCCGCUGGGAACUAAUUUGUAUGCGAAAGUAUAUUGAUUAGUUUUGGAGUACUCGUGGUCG
Settings: 37 °C
QUANTITY: self-splicing fitness (ln)
Numbers only.

Known self-splicing fitness (ln) results, listed for orientation:
1. GGCCAGCAAUAUUACGCUUU 0.4
2. UGUAAGCAAUAUUACGUUAC -3.12
3. CCCGAGCAAUAUUACGCCAC -2.84
4. GGACAGCAAUAUUACGAAUG -1.9
5. GAAGAGCAAUAUUACGUAAC -1.54
6. GGCUAGCAAUAUUACGGGAU -1.03

Please supply self-splicing fitness (ln) for each of the following items, keeping them in order.
1. UGUGAGCAAUAUUACGAGGU
2. CAUUAGCAAUAUUACGUGUU
3. UGAGAGCAAUAUUACGUCAA

1. -2.55
2. -2.69
3. -2.89

Please supply self-splicing fitness (ln) for each of the following items, keeping them in order.
1. CCAUAGCAAUAUUACGGGCC
2. GAAAAGCAAUAUUACGACGU
3. UUGCAGCAAUAUUACGUACG
4. GUAAAGCAAUAUUACGCAUC
5. CUCCAGCAAUAUUACGUUGG
6. UCAGAGCAAUAUUACGAGAG
7. AAAAAGCAAUAUUACGACUU

-1.32
0.769
0.233
-0.97
-2.49
-3.27
-0.391
